Entries and their measured AUC follow.
Test: In vitro dissolution test, microcentrifuge method, in phosphate buffered saline (PBS) pH 6.5
Type: physicochemical
Settings: PBS pH 6.5, 37° C., TCmax 1000 μg/mL, time 0 min

Illustrative cases are given below, each with its answer.
CCOC(=O)N1c2cc(OC)c(OC)cc2[C@@H](N(Cc2cc(C(F)(F)F)cc(C(F)(F)F)c2)C(=O)OC)C[C@H]1C [Control 6] | 0 min-μg/mL
CC1(C)Cc2nc(C3CCCC3)c([C@@H](F)c3ccc(C(F)(F)F)cc3)c(-c3ccc(F)cc3)c2[C@@H](O)C1 [Control 11] | 0 min-μg/mL
COC(=O)N(Cc1cc(C(F)(F)F)cc(C(F)(F)F)c1)[C@H]1C[C@@H](C2CC2)N(C(=O)OC(C)C)c2ccc(C(F)(F)F)cc21 [Control 10] | 0 min-μg/mL

In the following, a different compound is considered.
Please give the measured AUC for this compound: CCOC(=O)N1c2cc(CC)c(CC)cc2[C@@H](N(Cc2cc(C(F)(F)F)cc(C(F)(F)F)c2)C(=O)OC)C[C@H]1C [Control 7]
0 min-μg/mL
